Cited source: patent US7511145B2

- assayed_target: HCV-NS5b (Hepatitis C virus genotype 1b)
- Construct: (His)6 (C); made in house; host or cells: XL-1 cells (E. coli), IPTG-inducible plasmid, nickel-NTA purification
- assay_overview: HCV-NS5b enzyme assay (incorporation of radiolabeled UTP)
- Assay type: biochemical
- experimental_setup: read-out: % inh@100, enzyme inhibition at compound concentration of 100 uM
inhibition at 100 µM: recorded values
value_kind: inhibition at 100 µM (%)

* COc1ccc(-c2ccco2)c(-c2ccc3cc(-c4nc5cc(C(=O)O)ccc5n4C4CCCCC4)ccc3n2)c1 [Compound 454] | 101
* COc1ccc(-c2cccc(C)c2)c(-c2ccc3cc(-c4nc5cc(C(=O)O)ccc5n4C4CCCCC4)ccc3n2)c1 [Compound 367] | 101
* O=C(N[C@@H](Cc1ccc(-c2ccccc2)cc1)C(=O)O)c1ccc2c(c1)nc(-c1ccc3nc(-c4ccccc4)cnc3c1)n2C1CCCCC1 [Compound 240] | 96.1
* COc1cc(O)c(-c2ccc3cc(-c4nc5cc(C(=O)O)ccc5n4C4CCCCC4)ccc3n2)c(OC)c1 [Compound 452] | 102
* CC(C)[C@H](NC(=O)c1ccc2c(c1)nc(-c1ccc3nc(-c4ccccc4)cnc3c1)n2C1CCCCC1)C(=O)O [Compound 517] | 97.8
* COc1ccc(-c2ccc(Cl)cc2)c(-c2ccc3cc(-c4nc5cc(C(=O)O)ccc5n4C4CCC(C)CC4)ccc3n2)c1 (stereo not shown) [Compound 543] | 102
* COc1ccc(-c2ccc(F)c(F)c2)c(-c2ccc3cc(-c4nc5cc(C(=O)O)ccc5n4C4CCCCC4)ccc3n2)c1 [Compound 560] | 101
* O=C(N[C@H](C(=O)O)C1CCCCC1)c1ccc2c(c1)nc(-c1ccc3nc(-c4ccccc4)cnc3c1)n2C1CCCCC1 [Compound 243] | 98.1
* O=C(O)c1ccc2c(c1)nc(-c1ccc3nc(-c4cc(OCC(=O)N5CCCC5)ccc4-c4ccccc4)ccc3c1)n2C1CCCCC1 [Compound 360] | 97.9
* O=C(O)c1ccc2c(c1)nc(-c1ccc3nc(-c4ccccc4)cc(Oc4ccccc4)c3c1)n2C1CCCCC1 [Compound 496] | 101
* CC(C)[C@H](NC(=O)c1ccc2cc(-c3nc4cc(C(=O)O)ccc4n3C3CCCCC3)ccc2n1)C(N)=O [Compound 511] | 95
* O=C(N[C@@H](Cc1c[nH]c2ccc(O)cc12)C(=O)O)c1ccc2c(c1)nc(-c1ccc3nc(-c4cc(C(=O)N5CCCC5)ccc4-c4ccc(Cl)cc4)ccc3c1)n2C1CCCCC1 [Compound 235] | 99.5
* COc1ccc(-c2cccc(C(=O)O)c2)c(-c2ccc3cc(-c4nc5cc(C(=O)O)ccc5n4C4CCCCC4)ccc3n2)c1 [Compound 437] | 101

----------
- assayed_target: HCV-NS5b (Hepatitis C virus genotype 1b, UniProt Q9WMX2)
- Construct: (His)6 (C); made in house; host or cells: XL-1 cells (E. coli), IPTG-inducible plasmid, nickel-NTA purification
- assay_overview: HCV-NS5b enzyme assay (incorporation of radiolabeled UTP)
- Format: biochemical
- experimental_setup: enzyme inhibition at compound concentration of 33 uM
inhibition at 33 µM: recorded values
value_kind: inhibition at 33 µM (%)

- COc1ccc(-c2ccc(CN)cc2)c(-c2ccc3cc(-c4nc5cc(C(=O)O)ccc5n4C4CCCCC4)ccc3n2)c1: 95.5
- O=C(O)c1ccc2c(c1)nc(-c1ccc3ccc(-c4ccccc4)nc3c1)n2C1CCCCC1: 90.5
- COc1ccc(-c2ccc(F)cc2)c(-c2ccc3cc(-c4nc5cc(C(=O)O)ccc5n4C4CCCCC4)ccc3n2)c1: 100
- O=C(O)c1ccc2c(c1)nc(-c1ccc3nc(-c4ccccc4)cc(Oc4ccc5ccc(O)cc5c4)c3c1)n2C1CCCCC1: 100

----------
- assayed_target: HCV-NS5b (Hepatitis C virus genotype 1b, UniProt Q9WMX2)
- Construct: (His)6 (C); made in house; host or cells: XL-1 cells (E. coli), IPTG-inducible plasmid, nickel-NTA purification
- assay_overview: HCV-NS5b enzyme assay (incorporation of radiolabeled UTP)
- Type: biochemical
- experimental_setup: read-out: % inh@100, enzyme inhibition at compound concentration of 100 uM
value_kind: inhibition at 100 µM (%)

• COc1ccc(-c2ccc(C(N)=O)cc2)c(-c2ccc3cc(-c4nc5cc(C(=O)O)ccc5n4C4CCCCC4)ccc3n2)c1 [Compound 382] = 101
• COc1ccc(-c2ccc(C#N)cc2)c(-c2ccc3cc(-c4nc5cc(C(=O)O)ccc5n4C4CCCCC4)ccc3n2)c1 [Compound 365] = 103
• O=C(O)c1ccc2c(c1)nc(-c1ccc3nc(-c4ccc(O)cc4O)ccc3c1)n2C1CCCCC1 [Compound 364] = 101
• COc1ccc(-c2cccc([N+](=O)[O-])c2)c(-c2ccc3cc(-c4nc5cc(C(=O)O)ccc5n4C4CCCCC4)ccc3n2)c1 [Compound 420] = 98.3
• Cc1cc(-c2ccccc2-c2ccc(Cl)cc2)nc2ccc(-c3nc4cc(C(=O)O)ccc4n3C3CCCCC3)cc12 [Compound 485] = 99.5
• O=C(O)c1ccc2c(c1)nc(-c1ccc3nc(-c4ccnc5ccccc45)ccc3c1)n2C1CCCCC1 [Compound 423] = 102
• COc1ccc(-c2ccc(Cl)cc2)c(-c2ccc3cc(-c4nc5cc(C(=O)O)ccc5n4C4CC5CCC4C5)ccc3n2)c1 (stereo not drawn) [Compound 568] = 100
• O=C(O)[C@@H]1C[C@@H](O)CN1C(=O)c1ccc2c(c1)nc(-c1ccc3nc(-c4ccccc4)cnc3c1)n2C1CCCCC1 [Compound 248] = 86.8
• O=C(O)c1ccc2c(c1)nc(-c1ccc3nc(-c4ccc(Cl)c(Cl)c4)ccc3c1)n2C1CCCCC1 [Compound 508] = 98.9
• COc1ccc(-c2ccc(Cl)cc2)c(-c2ccc3cc(-c4nc5cc(C(=O)O)ccc5n4CC4CC4)ccc3n2)c1 [Compound 531] = 99.3
• O=C(O)c1ccc2c(c1)nc(-c1ccc3nc(-c4ccc5c(c4)CCCC5)ccc3c1)n2C1CCCCC1 [Compound 459] = 99.8
• CC(C)C[C@H](NC(=O)c1ccc2c(c1)nc(-c1ccc3nc(-c4ccccc4)cnc3c1)n2C1CCCCC1)C(=O)O [Compound 513] = 95.9
• COc1ccc(-c2ccccc2F)c(-c2ccc3cc(-c4nc5cc(C(=O)O)ccc5n4C4CCCCC4)ccc3n2)c1 [Compound 544] = 100
• O=C(O)c1ccc2c(c1)nc(-c1ccc3nc(-c4cc(Cl)ccc4-c4ccc(Cl)cc4)ccc3c1)n2C1CCCCC1 [Compound 567] = 97.7
• COc1ccc(-c2ccc(C)cc2)c(-c2ccc3cc(-c4nc5cc(C(=O)O)ccc5n4C4CCCCC4)ccc3n2)c1 [Compound 438] = 99.6
• O=C(O)c1cnc2c(c1)nc(-c1ccc3nc(-c4cc(O)ccc4-c4ccc(Cl)cc4)ccc3c1)n2C1CCCCC1 [Compound 535] = 100
• O=C(O)c1ccc2c(c1)nc(-c1ccc3nc(C(=O)N(c4ccc(Cl)cc4)C4CCCCC4)ccc3c1)n2C1CCCCC1 [Compound 551] = 95.7
• Cc1nn(-c2ccccc2)c(C)c1-c1ccc2cc(-c3nc4cc(C(=O)O)ccc4n3C3CCCCC3)ccc2n1 [Compound 464] = 100
• Nc1ccc(-c2ccc3cc(-c4nc5cc(C(=O)O)ccc5n4C4CCCCC4)ccc3n2)cc1 [Compound 358] = 95.3
• O=C(O)COc1ccc(-c2ccc(Cl)cc2)c(-c2ccc3cc(-c4nc5cc(C(=O)O)ccc5n4C4CCCCC4)ccc3n2)c1 [Compound 393] = 96.9
• O=C(N[C@@H](Cc1c[nH]c2ccc(O)cc12)C(=O)O)c1ccc2c(c1)nc(-c1ccc3ncc(-c4ccccc4)cc3c1)n2C1CCCCC1 [Compound 238] = 98.4
• CC[C@H](C)[C@H](NC(=O)c1ccc2c(c1)nc(-c1ccc3nc(-c4ccccc4)cnc3c1)n2C1CCCCC1)C(=O)O [Compound 249] = 97.2
• O=C(O)c1ccc2c(c1)nc(-c1ccc3nc(-c4cccc(-c5ccc(Cl)cc5)c4)ccc3c1)n2C1CCCCC1 [Compound 483] = 99.4
• Cc1cc(-c2ccc3cc(-c4nc5cc(C(=O)O)ccc5n4C4CCCCC4)ccc3n2)c(O)c([N+](=O)[O-])c1 [Compound 418] = 103
• CC(C)(C)OC(=O)NCCNc1cc(-c2ccccc2)nc2ccc(-c3nc4cc(C(=O)O)ccc4n3C3CCCCC3)cc12 [Compound 399] = 102
• O=C(O)c1ccc2c(c1)nc(-c1ccc3nc(-c4ccccc4-c4ccncc4)ccc3c1)n2C1CCCCC1 [Compound 369] = 98.8
• O=C(O)c1ccc2c(c1)nc(-c1ccc3nc(-c4cccc(OCC(=O)N5CCCC5)c4)ccc3c1)n2C1CCCCC1 [Compound 503] = 97

----------
inhibition at 33 µM: recorded values
- assayed_target: HCV-NS5b (Hepatitis C virus genotype 1b)
- Construct: (His)6 (C); made in house; host or cells: XL-1 cells (E. coli), IPTG-inducible plasmid, nickel-NTA purification
- assay_overview: HCV-NS5b enzyme assay (incorporation of radiolabeled UTP)
- Assay type: biochemical
- experimental_setup: enzyme inhibition at compound concentration of 33 uM
value_kind: inhibition at 33 µM (%)

* Nc1ccc(-c2ccc3cc(-c4nc5cc(C(=O)O)ccc5n4C4CCCCC4)ccc3n2)cc1 | 85.1
* COc1ccc(-c2ccc(F)c(F)c2)c(-c2ccc3cc(-c4nc5cc(C(=O)O)ccc5n4C4CCCCC4)ccc3n2)c1 | 101
* O=C(O)c1ccc2c(c1)nc(-c1cc3ccc(-c4ccccc4-c4ccc(Cl)cc4)nc3cc1F)n2C1CCCCC1 | 99.3
* COc1ccc(-c2ccccc2OC)c(-c2ccc3cc(-c4nc5cc(C(=O)O)ccc5n4C4CCCCC4)ccc3n2)c1 | 101
